Sourced from the Human Domainome abundance scans (Beltran et al. 2025)

B1: E3 ubiquitin-protein ligase Midline-1, residues 172 to 214; numbered along this chain, O15344 (parent)
chain: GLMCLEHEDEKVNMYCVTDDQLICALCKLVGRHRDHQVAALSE

- Variants of: B1
- assay.overview: abundance fitness (aPCA) (normalised: wild type 0, dead -1); higher = more abundant; growth selection in yeast, the domain comes from the species named
- measurement.context: Homo sapiens

mutation.list: C27I
abundance fitness: -0.538
//
mutation.list: K28Y
abundance fitness: -0.161
//
mutation.list: D20Y
abundance fitness: -0.464
//
mutation.list: L41P
abundance fitness: 0.297
//
mutation.list: G1V
abundance fitness: -0.211
//
mutation.list: G31S
abundance fitness: -0.263
//
mutation.list: H33F
abundance fitness: -0.528
//
mutation.list: Q37V
abundance fitness: -0.208
//
mutation.list: D9T
abundance fitness: -0.24
//
mutation.list: G1S
abundance fitness: -0.184
//
mutation.list: V12P
abundance fitness: -0.51
